- System: PAX-10
- METHOD_DESCRIPTION: cytotoxicity in paclitaxel-resistant 1A9 sub-line PAX-10
- Assay type: cell-based, human
- CONDITIONS: PAX-10 paclitaxel-resistant 1A9 sub-line
- Procedure: Biological Assay. The in vitro cytotoxicity assay was carried out according to procedures described in Rubinstein et al. (P. Ferguson et al., Cancer Res. 1988, 48, 5956-5964). […] Initial seeding densities varied among the cell lines to ensure a final absorbance of 1-2.5 A562 units. […] The newly synthesized taxoid-4′-O-demethyl epipodophyllotoxin conjugates were evaluated in house using standard cytotoxicity assays in human tumor (HTCL) and drug-resistant (DRCL) cell lines. […]
EXPERIMENTAL_READOUT: Resistance Fold PAX-10

Take a look at these entries with their results.
1. C/C=C(\C)C(=O)N[C@@H](c1ccccc1)[C@@H](OC(=O)c1ccc(C=N[C@@H]2c3cc4c(cc3[C@@H](c3cc(OC)c(O)c(OC)c3)[C@H]3C(=O)OC[C@@H]32)OCO4)cc1)C(=O)O[C@H]1C[C@@]2(O)[C@@H](OC(=O)c3ccccc3)[C@@H]3[C@]4(OC(C)=O)CO[C@@H]4C[C@H](O)[C@@]3(C)C(=O)[C@H](OC(C)=O)C(=C1C)C2(C)C    >36
2. COc1cc([C@@H]2c3cc4c(cc3[C@@H](Nc3ccc(N=Cc5ccc(C(=O)O[C@@H](C(=O)O[C@H]6C[C@@]7(O)[C@@H](OC(=O)c8ccccc8)[C@@H]8[C@]9(OC(C)=O)CO[C@@H]9C[C@H](O)[C@@]8(C)C(=O)[C@H](OC(C)=O)C(=C6C)C7(C)C)[C@@H](NC(=O)c6ccccc6)c6ccccc6)cc5)cc3)[C@H]3COC(=O)[C@H]23)OCO4)cc(OC)c1O    >17
3. C/C=C(\C)C(=O)N[C@@H](c1ccccc1)[C@@H](OC(=O)c1ccc(C=Nc2ccc(N[C@@H]3c4cc5c(cc4[C@@H](c4cc(OC)c(O)c(OC)c4)[C@H]4C(=O)OC[C@@H]43)OCO5)cc2)cc1)C(=O)O[C@H]1C[C@@]2(O)[C@@H](OC(=O)c3ccccc3)[C@@H]3[C@]4(OC(C)=O)CO[C@@H]4C[C@H](O)[C@@]3(C)C(=O)[C@H](OC(C)=O)C(=C1C)C2(C)C    7.5

So what does the record say about Resistance Fold PAX-10 for COc1cc([C@@H]2c3cc4c(cc3[C@@H](O[C@@H]3O[C@@H]5CO[C@@H](C)O[C@H]5[C@H](O)[C@H]3O)[C@H]3COC(=O)[C@H]23)OCO4)cc(OC)c1O [Etoposide, etoposide, reference compound] ?
>16

All values here come from patent US6624317B1.
